Each item that follows carries a reported IC50.
# Test method notes: Inhibition of Leishmania infantum recombinant topoisomerase 1B expressed in topoisomerase 1B- deficient Saccharomyces cerevisiae EKY3 assessed as decrease in relaxation of negatively supercoiled pSK DNA preincubated for 15 mins followed by supercoiled pSK DNA addition measured after 5 mins by aggarose gel electrophoresis
Outcome measure: IC50 (µM)

>>> measured_result("Fc1ccc(-c2nc3cccnc3c3c2Cc2ccccc2-3)cc1")
14.7
>>> measured_result("Fc1ccc([C@H]2Nc3cccnc3[C@H]3c4ccccc4C[C@H]32)cc1 (relative stereo)")
49
>>> measured_result("COc1cccc([C@H]2Nc3cccnc3[C@H]3c4ccccc4C[C@H]32)c1 (relative stereo)")
21.8
>>> measured_result("Fc1ccc([C@H]2Nc3cccnc3[C@H]3c4ccccc4C[C@H]32)c(F)c1 (relative stereo)")
41.8
>>> measured_result("FC(F)(F)c1ccc(-c2nc3cccnc3c3c2Cc2ccccc2-3)cc1")
23.6
>>> measured_result("FC(F)(F)c1ccc([C@H]2Nc3cccnc3[C@H]3c4ccccc4C[C@H]32)cc1 (relative stereo)")
60.6

----------
# Test method notes: Selectivity index, ratio of CC50 for BALB/c mouse splenocytes to IC50 for Leishmania infantum amastigotes harboring iRFP gene infected BALB/c mouse splenocytes
# Type: functional
Each item that follows carries a reported Ratio CC50/IC50.
Outcome measure: Ratio CC50/IC50

>>> measured_result("O=[N+]([O-])c1ccc(-c2nc3cccnc3c3c2Cc2ccccc2-3)cc1")
1.29
>>> measured_result("Fc1ccc(-c2nc3cccnc3c3c2Cc2ccccc2-3)cc1F")
0.95
>>> measured_result("Fc1ccc([C@H]2Nc3cccnc3[C@H]3c4ccccc4C[C@H]32)c(F)c1 (relative stereo)")
47.9
>>> measured_result("c1ccc([C@H]2Nc3cccnc3[C@H]3c4ccccc4C[C@H]32)cc1")
1.45
>>> measured_result("Fc1ccc([C@H]2Nc3cccnc3[C@H]3c4ccccc4C[C@H]32)cc1F (relative stereo)")
1.02
>>> measured_result("COc1cccc([C@H]2Nc3cccnc3[C@H]3c4ccccc4C[C@H]32)c1 (relative stereo)")
66.3
>>> measured_result("c1ccc2c(c1)C[C@@H]1[C@H]2c2ncccc2N[C@@H]1c1ccncc1 (relative stereo)")
1.45

----------
# Test method notes: Cytotoxicity against BALB/c mouse splenocytes assessed as cell viability after 48 hrs by alamar blue assay
# Format: toxicity, Splenocyte
Each item that follows carries a reported CC50 at 48 h.
Outcome measure: CC50 at 48 h (µM)

>>> measured_result("COc1ccc(-c2nc3cccnc3c3c2Cc2ccccc2-3)cc1")
116
>>> measured_result("Fc1ccc([C@H]2Nc3cccnc3[C@H]3c4ccccc4C[C@H]32)c(F)c1 (relative stereo)")
32.1
>>> measured_result("c1ccc2c(c1)C[C@@H]1[C@H]2c2ncccc2N[C@@H]1c1ccncc1 (relative stereo)")
94.6
>>> measured_result("Fc1ccc(-c2nc3cccnc3c3c2Cc2ccccc2-3)cc1F")
74.2
>>> measured_result("Fc1ccc(-c2nc3cccnc3c3c2Cc2ccccc2-3)cc1")
50.5
>>> measured_result("COc1cccc([C@H]2Nc3cccnc3[C@H]3c4ccccc4C[C@H]32)c1 (relative stereo)")
35.8
>>> measured_result("Fc1ccc([C@H]2Nc3cccnc3[C@H]3c4ccccc4C[C@H]32)cc1 (relative stereo)")
57.9
>>> measured_result("CSc1ccc(-c2nc3cccnc3c3c2Cc2ccccc2-3)cc1")
80.9

Data origin, for the record: ChEMBL document CHEMBL3877246
